Assay system human full-length BTK Kinase (Homo sapiens (Human)); read-out recorded as IC50.
measure name: IC50 (nM)

{"compound": "N#CN1CCC[C@@H](n2nc(-c3ccc(Oc4ncc(Cl)cc4F)cc3)c(C(N)=O)c2N)C1 [Example 118]", "reported measurement": 7.6}
{"compound": "C=CC(=O)N1CCC[C@H](n2nc(-c3ccc(Oc4ccc(F)cc4F)cc3)c(C(N)=O)c2N)C1 [Example 136]", "reported measurement": 7.8}
{"compound": "NC(=O)c1c(-c2ccc(Oc3cccc(C(F)(F)F)n3)cc2)nn([C@@H]2CCCN(C(=O)/C=C/CO)C2)c1N [Example 162]", "reported measurement": 9.8}
